# Target Or Test System: UniProt P05093
# Sequence (P05093 whole entry): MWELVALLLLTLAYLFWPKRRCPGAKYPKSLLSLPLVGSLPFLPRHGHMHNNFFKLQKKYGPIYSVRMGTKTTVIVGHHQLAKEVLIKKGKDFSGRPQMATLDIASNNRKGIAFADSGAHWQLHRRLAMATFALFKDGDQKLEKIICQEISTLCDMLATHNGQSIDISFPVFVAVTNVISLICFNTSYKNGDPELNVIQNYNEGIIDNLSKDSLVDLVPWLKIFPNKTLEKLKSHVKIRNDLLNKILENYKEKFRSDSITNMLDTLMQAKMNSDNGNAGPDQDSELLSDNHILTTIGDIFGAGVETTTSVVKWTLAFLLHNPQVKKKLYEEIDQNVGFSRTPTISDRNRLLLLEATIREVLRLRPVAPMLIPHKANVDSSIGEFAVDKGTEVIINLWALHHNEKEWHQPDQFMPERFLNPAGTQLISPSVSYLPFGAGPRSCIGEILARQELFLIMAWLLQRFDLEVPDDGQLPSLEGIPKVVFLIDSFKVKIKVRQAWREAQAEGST
# Assay Notes: CYP17 Total SPA Assay
# Assay type: biochemical
# Run Conditions: microsomes from HEK2 cells stably transfected with CYP17; 3H-Pregnenolone 1 uM, NADPH 2 mM; 45 minutes at room temperature
Give measured pIC50 for each item. Keep answers brief.
In simple prose, pIC50 is minus the logarithm base ten of a concentration in moles per litre.

pIC50 in this record for Cc1ccncc1-c1cccc2c(OCCN(C)C)noc12 [Example 68] : 6.28

Lab note: measured pIC50 of Fc1ccc(-c2csc3c(-c4cncnc4C4CC4)ccnc23)cc1 [Example 99] was 8.40

Recorded result, Cc1ccncc1-c1cccc2c(OCc3ccc(Cl)cc3)noc12 [Example 128] , pIC50: 6.60

pIC50 recorded for this molecule, Fc1ccc(-c2csc3c(-c4cncc5ccccc45)cccc23)cc1 [Example 109] , is 7.25

Noted for Clc1ccccc1-c1noc2c(-c3cncnc3-n3cncn3)cccc12 [Example 52] : its pIC50 reads 7.38

molecule Cc1ccncc1-c1cccc2c(-c3ccc(F)cc3)noc12 [Example 6] , pIC50 observed: 8.49

// pIC50 lookup, molecule = Cc1ncncc1-c1ccnc2c(-c3ccc(F)cc3)csc12 [Example 98] , result: 8.10

Lookup result for Cc1ccncc1-c1ccnc2c(-c3ccc(F)cc3)noc12 [Example 86] ; measured pIC50: 8.41

So, FC(F)(F)COc1ncncc1-c1cccc2c(-c3cnccn3)noc12 [Example 26] ? Its pIC50 was 7.19

What the record says about Cc1ccncc1-c1cccc2c(-c3ccccc3)noc12 [Example 1] : pIC50 is 8.96
